Measured values drawn from ChEMBL document CHEMBL5506054 for this set.

Protocol notes: AUC (0 to infinity) in Sprague-Dawley rat at 2 mg/kg, iv measured for 48 hrs by LC-MS/MS analysis
Format: ADME, organism-based
Condition description: in vivo
Assay readout: AUC(0-inf) (ng·h/mL)
Just the number in ng·h/mL, nothing appended.

Consider Cc1c(COc2cc(OCc3cccc(C#N)c3)c(CN3CCCCC3C(=O)N3CCN(c4ccc(-c5c[nH]c(=O)[nH]c5=O)nn4)CC3)cc2Cl)cccc1-c1ccccc1 (stereo unspecified) . Its measured AUC(0-inf) is 1170

---

Protocol notes: Tmax in Sprague-Dawley rat at 2 mg/kg, iv measured for 48 hrs by LC-MS/MS analysis
Assay type: ADME, organism-based
Condition description: in vivo
Assay readout: Tmax

Value of Tmax reported for the compound Cc1c(COc2cc(OCc3cccc(C#N)c3)c(CN3CCCCC3C(=O)N3CCN(c4ccc(-c5c[nH]c(=O)[nH]c5=O)nn4)CC3)cc2Cl)cccc1-c1ccccc1 (stereo unspecified) is 4.98 min
